Let's look at some variants and their measured FACS-Seq fitted mean (log10).
B1: library; a variant is named by its letters at N, in order (parent)
chain: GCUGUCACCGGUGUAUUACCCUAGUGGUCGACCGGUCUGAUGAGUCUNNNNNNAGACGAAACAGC

- Variants of: B1
- test.method.notes: FACS-Seq fitted mean relative fluorescence mCherry/BFP without ligand (log10 relative fluorescence); ligand: hypoxanthine (xanthine aptamer); higher = higher reporter protein expression
- run.parameters: HEK293T, ligand present: no

sequence.data: GCUGUCACCGGUGUAUUACCCUAGUGGUCGACCGGUCUGAUGAGUCUAGUCUGAGACGAAACAGC [AGUCUG]
FACS-Seq fitted mean (log10): 0.186
//
sequence.data: GCUGUCACCGGUGUAUUACCCUAGUGGUCGACCGGUCUGAUGAGUCUGGGCAUAGACGAAACAGC [GGGCAU]
FACS-Seq fitted mean (log10): -0.045
//
sequence.data: GCUGUCACCGGUGUAUUACCCUAGUGGUCGACCGGUCUGAUGAGUCUCACUGGAGACGAAACAGC [CACUGG]
FACS-Seq fitted mean (log10): 0.504
//
sequence.data: GCUGUCACCGGUGUAUUACCCUAGUGGUCGACCGGUCUGAUGAGUCUUCAGCGAGACGAAACAGC [UCAGCG]
FACS-Seq fitted mean (log10): 0.383
//
sequence.data: GCUGUCACCGGUGUAUUACCCUAGUGGUCGACCGGUCUGAUGAGUCUCAAAUCAGACGAAACAGC [CAAAUC]
FACS-Seq fitted mean (log10): 0.445
//
sequence.data: GCUGUCACCGGUGUAUUACCCUAGUGGUCGACCGGUCUGAUGAGUCUGAUGACAGACGAAACAGC [GAUGAC]
FACS-Seq fitted mean (log10): 0.654
//
sequence.data: GCUGUCACCGGUGUAUUACCCUAGUGGUCGACCGGUCUGAUGAGUCUAGGCUGAGACGAAACAGC [AGGCUG]
FACS-Seq fitted mean (log10): 0.279
//
sequence.data: GCUGUCACCGGUGUAUUACCCUAGUGGUCGACCGGUCUGAUGAGUCUCGAGGGAGACGAAACAGC [CGAGGG]
FACS-Seq fitted mean (log10): -0.0981
//
sequence.data: GCUGUCACCGGUGUAUUACCCUAGUGGUCGACCGGUCUGAUGAGUCUGCUACGAGACGAAACAGC [GCUACG]
FACS-Seq fitted mean (log10): 0.064
//
sequence.data: GCUGUCACCGGUGUAUUACCCUAGUGGUCGACCGGUCUGAUGAGUCUCCGAUUAGACGAAACAGC [CCGAUU]
FACS-Seq fitted mean (log10): 0.52
//
sequence.data: GCUGUCACCGGUGUAUUACCCUAGUGGUCGACCGGUCUGAUGAGUCUCCCCAAAGACGAAACAGC [CCCCAA]
FACS-Seq fitted mean (log10): -0.321
